System: PC3 cells (prostate carcinoma)
TEST DESCRIPTION: in vitro inhibition of cell proliferation / survival assay
Format: cell-based
SETTINGS: measured at 25 μM after 48 h, single dose, triplicate
MEASURED QUANTITY: % of Survival (%)
Express it in %; write the number only.

Data request: I'd like to know its % of Survival. The molecule in question is `Cl.NCCCCNCc1ccc2c(c1)OCCO2`
Data returned: 97

Data request: Which % of Survival reading was recorded for the molecule `COc1ccc(CNCCCCN)cc1.Cl` ?
Data returned: 100

Data request: Tell me the measured % of Survival of `Cl.NCCCCNCc1ccccc1Cl` , please.
Data returned: 96

Data request: Requested read-out: % of Survival. Entry: `COc1cccc(CNCCCCN)c1.Cl`
Data returned: 98

Every entry's value here was drawn from paper PMC6332318.
